# MIC values compiled below
Test system: E. coli W3110 gyrA S97L, S83L, D87N
Test: MIC against CRISPR/Cas9 gyrA point mutants
Format: cell-based, Escherichia coli
Conditions: Escherichia coli, E. coli W3110 gyrA S97L (LEI-800-resistant)
Protocol: MIC was determined by broth microdilution. Single-colony cultures were grown to exponential phase (OD600 of 0.5) aerobically at 37 °C. In case of strains from the Keio collection, 50 µg ml^−1 kanamycin was supplemented to the media to ascertain a homogeneous population. […] The MIC was determined as the lowest concentration at which no visible bacterial growth was observed as compared with the inoculum controls from the median of a minimum of triplicates. […]

O=S(=O)(NC[C@@H]1CC[C@H](c2ccc(-c3ccc(F)cc3)cc2)N1)c1cccc2cnccc12 [Compound 101]; > 50 µM
O=S(=O)(NC[C@@H]1CC[C@H](c2ccc(-c3cccnc3)cc2)N1)c1cccc2cnccc12 [LEI-800]; > 50 µM
O=S(=O)(NCCNCc1ccc(-c2ccc(F)nc2)cc1)c1cccc2cnccc12 [Compound 60]; > 50 µM

Consider now this further compound.
Please report MIC for the following compound: O=C(O)c1cn(C2CC2)c2cc(N3CCNCC3)c(F)cc2c1=O [CIP, ciprofloxacin]
0.024 µM
